Biological target: mGluR3 (Homo sapiens)
Experiment: HEK293T-mGluR3-Gqi5 Calcium Mobilization Assay
Details: HEK293T-mGluR3-Gqi5 stable cell line; FLIPR Ca2+ fluorescence; with L-glutamate at EC20 concentration
pEC50: −log10 of the molar value.
READOUT_TYPE: pEC50

Q: Look up pEC50 for this compound: CC(C)c1nc(N2CCOCC2)c(C#N)c2c1CCCC2 [Compound 1]
Result: > 6.00

Q: Look up pEC50 for this compound: N#Cc1ccc(-c2ccccc2)nc1N1CCOCC1 [Compound 4]
Result: 5.00 to 6.00

Q: Look up pEC50 for this compound: CCc1nc(NCCN)c(C#N)c2c1CSC(C)(C)C2 [Compound 8]
Result: 5.00 to 6.00

---
Q: Look up pEC50 for this compound: CCCc1nc(N2CCOCC2)c(C#N)c2c1COC(C)(C)C2 [Compound 2]
Result: 5.00 to 6.00

Q: Look up pEC50 for this compound: CCCc1nc(NCCO)c(C#N)c2c1CCCC2 [Compound 6]
Result: 5.00 to 6.00

---

Molecular target: mGluR3 (Homo sapiens, UniProt Q14832)
Sequence (Q14832 23-879): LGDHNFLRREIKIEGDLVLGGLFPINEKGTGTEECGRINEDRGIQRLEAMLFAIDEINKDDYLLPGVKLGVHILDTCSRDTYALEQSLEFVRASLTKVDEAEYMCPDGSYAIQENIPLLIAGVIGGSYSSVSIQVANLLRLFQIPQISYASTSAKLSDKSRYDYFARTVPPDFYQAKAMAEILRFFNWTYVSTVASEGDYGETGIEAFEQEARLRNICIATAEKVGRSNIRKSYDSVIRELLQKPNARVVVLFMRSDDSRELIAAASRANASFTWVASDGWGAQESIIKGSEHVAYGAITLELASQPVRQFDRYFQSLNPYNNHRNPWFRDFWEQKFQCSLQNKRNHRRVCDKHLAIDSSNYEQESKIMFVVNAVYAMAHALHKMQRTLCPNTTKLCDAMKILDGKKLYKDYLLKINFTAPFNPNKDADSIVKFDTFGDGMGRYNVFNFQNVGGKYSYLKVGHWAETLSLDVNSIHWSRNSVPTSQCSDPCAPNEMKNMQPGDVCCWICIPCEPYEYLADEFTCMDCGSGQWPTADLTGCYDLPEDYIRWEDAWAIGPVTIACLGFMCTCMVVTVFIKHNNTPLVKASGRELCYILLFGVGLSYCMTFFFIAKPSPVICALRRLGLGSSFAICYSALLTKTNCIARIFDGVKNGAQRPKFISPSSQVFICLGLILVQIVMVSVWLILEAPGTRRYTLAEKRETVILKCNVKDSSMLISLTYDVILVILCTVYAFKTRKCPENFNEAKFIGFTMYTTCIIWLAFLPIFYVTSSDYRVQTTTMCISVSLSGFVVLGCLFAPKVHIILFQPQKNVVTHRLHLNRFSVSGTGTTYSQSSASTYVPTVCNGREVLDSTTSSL
Assay: HEK293T-mGluR3-Gqi5 Calcium Mobilization Assay
Conditions: HEK293T-mGluR3-Gqi5 stable cell line; FLIPR Ca2+ fluorescence; with L-glutamate at EC20 concentration
READOUT_TYPE: EC50

Q: Look up EC50 for this compound: `CCc1nc(NCCCO)c(C#N)c2c1CCCC2`
Result: 1 to 10 µM

Q: Look up EC50 for this compound: `CCCc1nc(NCCN2CCOCC2)c(C#N)c2c1CCCC2`
Result: 1 to 10 µM

Q: Look up EC50 for this compound: `CCc1nc(N2CCOCC2)c(C#N)c2c1CCCC2`
Result: 1 to 10 µM

Measured values drawn from patent US10059671B2 for this set.
